# Measured On: Signal transducer and activator of transcription 3 (Homo sapiens, UniProt P40763)
# Sequence (P40763 whole entry): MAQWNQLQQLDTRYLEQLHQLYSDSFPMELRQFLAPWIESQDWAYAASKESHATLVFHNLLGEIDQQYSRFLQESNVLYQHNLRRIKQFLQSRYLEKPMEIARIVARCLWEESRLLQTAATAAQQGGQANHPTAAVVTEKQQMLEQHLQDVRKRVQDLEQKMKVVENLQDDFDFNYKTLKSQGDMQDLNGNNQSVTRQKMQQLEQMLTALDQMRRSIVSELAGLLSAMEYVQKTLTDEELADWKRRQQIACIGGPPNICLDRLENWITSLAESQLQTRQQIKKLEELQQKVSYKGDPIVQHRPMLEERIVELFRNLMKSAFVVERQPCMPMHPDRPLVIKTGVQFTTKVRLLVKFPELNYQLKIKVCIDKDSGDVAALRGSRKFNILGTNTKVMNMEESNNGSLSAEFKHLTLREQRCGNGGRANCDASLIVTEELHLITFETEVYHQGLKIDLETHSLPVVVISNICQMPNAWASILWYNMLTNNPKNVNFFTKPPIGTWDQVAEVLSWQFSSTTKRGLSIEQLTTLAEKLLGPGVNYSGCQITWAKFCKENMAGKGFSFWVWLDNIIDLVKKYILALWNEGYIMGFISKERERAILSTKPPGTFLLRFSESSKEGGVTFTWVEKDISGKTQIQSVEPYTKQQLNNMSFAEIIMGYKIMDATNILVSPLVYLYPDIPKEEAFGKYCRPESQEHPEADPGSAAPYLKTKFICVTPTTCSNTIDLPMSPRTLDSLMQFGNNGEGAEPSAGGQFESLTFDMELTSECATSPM
# Test Summary: Inhibition of STAT3 in IL-6-stimulated human HepG2 cells at 10 uM treated for 1 hr prior to IL-6 challenge measured after 5.5 hrs by luciferase reporter gene assay
# Type: cell-based
Metric Name: inhibition (%)

As a guide, the following entries are already answered.
COc1ccc(C(=O)Nc2ccc3nc(SCC(=O)N[C@@H](C)c4ccccc4)sc3c2)cc1    43
COc1ccc(NCc2nnc(SCC(=O)Nc3cccc4ccccc34)n2-c2ccc(OC)cc2)cc1    24
COc1cc(/C=C/C(=O)CC(=O)/C=C/c2ccc(O)c(OC)c2)ccc1O    30.7
COc1ccc(C(=O)Nc2ccc3nc(SCC(=O)NCc4ccc([N+](=O)[O-])cc4)sc3c2)cc1    23.8
CCc1cccc(CC)c1NC(=O)CSc1nc2ccc(NC(=O)c3ccc([N+](=O)[O-])cc3)cc2s1    -5.71
CCCCOc1ccc(C(=O)Nc2ccc3nc(SC(C)C(=O)Nc4c(C)cc(C)cc4C)sc3c2)cc1 (stereo unspecified)    21.5
COc1ccc(C(=O)Nc2ccc(C(=O)OCC(=O)c3cccc([N+](=O)[O-])c3)cc2)cc1OC    38.5
CCc1cccc(CC)c1NC(=O)CSc1nc2ccc(NC(=O)C3CC3)cc2s1    -9.23

I: C[C@H](NC(=O)CSc1nc2ccc(NC(=O)c3ccc(OCc4ccccc4)cc3)cc2s1)c1ccccc1
II: CCCC(C)Oc1ccc(C(=O)Nc2ccc3nc(SCC(=O)N[C@@H](C)c4ccccc4)sc3c2)cc1 (stereo partly specified)
Query :: // returns I or II , whichever has the lower inhibition To answer, give the label that identifies your chosen option.
Result :: I

* * *

# Measured On: UniProt:P40763
# Test Summary: Inhibition of STAT3 in IL-6-stimulated human HepG2 cells at 10 uM treated for 1 hr prior to IL-6 challenge measured after 5.5 hrs by luciferase reporter gene assay
# Format: cell-based
Metric Name: inhibition (%)

CCC(Sc1nc2ccc(NC(=O)c3ccc(OC)cc3)cc2s1)C(=O)Nc1ccc(Br)cc1 (stereo not given)    34.8

I: CCc1cccc(CC)c1NC(=O)CSc1nc2ccc(NC(=O)c3ccccc3OC)cc2s1
II: CCc1cccc(CC)c1NC(=O)CSc1nc2ccc(NC(=O)C(C)Cl)cc2s1 (stereo not given)
III: COc1ccc(C(=O)Nc2ccc3nc(SCC(=O)N[C@H](C)c4ccccc4)sc3c2)cc1
Query :: Order the 3 molecules from highest to lowest inhibition. // respond by listing labels in the order requested
Result :: I, III, II
(I: 25.8%, III: -0.31%, II: -7.98%)

P: CCCCCOc1ccc(C(=O)Nc2ccc3nc(SCC(=O)N[C@@H](C)c4ccccc4)sc3c2)cc1
Q: COc1ccc(C(=O)Nc2ccc3nc(SCC(=O)Nc4c(C)cccc4C)sc3c2)cc1
R: CCC(=O)Nc1ccc2nc(SCC(=O)Nc3c(CC)cccc3CC)sc2c1
Query :: Order each entry by recorded inhibition, climbing from the minimum. // respond by listing labels in the order requested
Result :: Q, R, P
(Q: -5.89%, R: 2.36%, P: 30.7%)

* * *

Item-by-item account of pIC50
# Tested on: MDA-MB-468
# Test Summary: Cytotoxicity against human MDA-MB-468 cells harboring constitutively harboring activated STAT3 assessed as inhibition of cell viability after 72 hrs by MTT assay
# Type: functional, cell-based
# Measurement Setup: MDA-MB-468, 72 h
Please treat pIC50 as minus the base-10 logarithm of the molar concentration.

Query :: Suppose we examine the compound COc1cc(/C=C/C(=O)CC(=O)/C=C/c2ccc(O)c(OC)c2)ccc1O ; what pIC50 value has been reported?
Result :: 3.71

Query :: Suppose we examine the compound CCCC(C)Oc1ccc(C(=O)Nc2ccc3nc(SCC(=O)N[C@@H](C)c4ccccc4)sc3c2)cc1 (stereo partly drawn) ; what pIC50 value has been reported?
Result :: 4.79

Query :: Suppose we examine the compound CCC(Sc1nc2ccc(NC(=O)c3ccc(OC)cc3)cc2s1)C(=O)Nc1ccc(Br)cc1 (stereo not drawn) ; what pIC50 value has been reported?
Result :: 5.05
